melting point values by entry

Some compounds with known melting point results, for comparison:
1) C#CC1CCC(c2ccc(C3CCC(CCC)CC3)cc2)CC1 (stereo not given) = 143 °C
2) CCCOc1nsc(NC(=O)NC)c1C#N = 220 °C
3) O=C1NC(=O)c2ccc(Br)cc2/C1=C/c1cc(Br)c(O)c(Br)c1 = 167 to 168 °C
4) O=C(O)COc1ccc2c(-c3ccccc3F)noc2c1I = 178 to 180 °C
5) CC(OC(=O)c1cc(-n2c(=O)cc(C(F)(F)F)n(C)c2=O)ccc1Cl)C1CC1 (stereo not given) = 118 to 119 °C
6) N#Cc1cc(-c2nc3cncnc3s2)ccc1Oc1ccccc1F = 195 to 196 °C
7) COc1ccc(C2=NN(c3ccc(CC(=O)O)cc3)C(=O)C(C)(C)C2)cc1OC = 186 to 188 °C
8) CC(C)(C)OC(=O)N[C@H]1CC[C@@H](OS(C)(=O)=O)C1 = 88 to 89 °C

Problem: Provide one value: measured melting point of `CC1(C)OCc2cc([C@@H](O)C(=O)N[C@H]3CCc4ccc(O)cc4C3)ccc2O1`
Solution: 169 to 170 °C

Problem: Provide one value: measured melting point of CCCCCCNc1nc(N)nc2c1ncn2C1CC(F)C(CO)O1 (stereo not given)
Solution: 50 to 51 °C

All figures here come from a melting point compilation (Tetko et al.; mined from patent text by program, amines drawn as free bases though some values may be those of a salt).
